Test system: TO-N3-2 (biotin conjugate)
protocol.description: pull-down binding Z-score (relative to library population); higher = stronger binding
experimental.parameters: RNA library: Library-2
Listed here are sequences together with their documented pull-down binding Z-score.
measured.endpoint: pull-down binding Z-score

[[record]]
biopolymer_sequence = "GGUCAGAAUGAUC [IAV_invivo_NP_5_Motif_12+IAV_invivo_NP_5_Motif_12]"
system_tested = "TO-N3-2 (biotin conjugate)"
measured_endpoint = "pull-down binding Z-score"
measurement = -0.437

[[record]]
biopolymer_sequence = "GCUUGCUGUACAUAACUCAAUAGCCGGAAGC [hsa-mir-129-2]"
system_tested = "TO-N3-2 (biotin conjugate)"
measured_endpoint = "pull-down binding Z-score"
measurement = 0.327

[[record]]
biopolymer_sequence = "UAUUGCAAAGAUUUUCAAUA [hsa-mir-3915]"
system_tested = "TO-N3-2 (biotin conjugate)"
measured_endpoint = "pull-down binding Z-score"
measurement = -1.1

[[record]]
biopolymer_sequence = "CUUGAUGAUUUUGUUGAAAUAAUAAAAUCCCAAG"
system_tested = "TO-N3-2 (biotin conjugate)"
measured_endpoint = "pull-down binding Z-score"
measurement = -0.743

[[record]]
biopolymer_sequence = "GCGCCGCCAGAAACUGGCAGCGC [mismatch-CA]"
system_tested = "TO-N3-2 (biotin conjugate)"
measured_endpoint = "pull-down binding Z-score"
measurement = -1.05

[[record]]
biopolymer_sequence = "CUAAUCUCUUAGCACUGAAGAUUAG [hsa-mir-4671]"
system_tested = "TO-N3-2 (biotin conjugate)"
measured_endpoint = "pull-down binding Z-score"
measurement = -0.473

[[record]]
biopolymer_sequence = "CACUGUACAGUCUAAAAUGUCAGAUGUAAAGUG [DMSMaPseq_invitro_SARS-CoV-2_Motif_208]"
system_tested = "TO-N3-2 (biotin conjugate)"
measured_endpoint = "pull-down binding Z-score"
measurement = -0.645

[[record]]
biopolymer_sequence = "UUUGCUAUUACUUUUAAUGGUAAA [hsa-mir-548aj-2]"
system_tested = "TO-N3-2 (biotin conjugate)"
measured_endpoint = "pull-down binding Z-score"
measurement = -1.19

[[record]]
biopolymer_sequence = "GGAAUAAGUAUGAUACUUACCUG [U1snRNP5ss-6]"
system_tested = "TO-N3-2 (biotin conjugate)"
measured_endpoint = "pull-down binding Z-score"
measurement = 1.18

[[record]]
biopolymer_sequence = "CAUUACUAAACUCAGUAAUG [hsa-mir-451b]"
system_tested = "TO-N3-2 (biotin conjugate)"
measured_endpoint = "pull-down binding Z-score"
measurement = -1.68

[[record]]
biopolymer_sequence = "UUAUUCAGAGAGGCUAGAUCCUCUGUGUUGAGAAGGAUCA [hsa-mir-433]"
system_tested = "TO-N3-2 (biotin conjugate)"
measured_endpoint = "pull-down binding Z-score"
measurement = -0.0231

[[record]]
biopolymer_sequence = "GCAUUGAUUUAGAUGAGUGGAGUAUGGCUACAUACUACUUAUUUGAUGAGUCUGGUGAGUUUAAAUUGGCUUCACAUAUGU"
system_tested = "TO-N3-2 (biotin conjugate)"
measured_endpoint = "pull-down binding Z-score"
measurement = 0.256

[[record]]
biopolymer_sequence = "GGUGGUUGUGGGAGUCACU [hsa-mir-4418]"
system_tested = "TO-N3-2 (biotin conjugate)"
measured_endpoint = "pull-down binding Z-score"
measurement = 1.93

[[record]]
biopolymer_sequence = "GUCCUAUUACGGAU"
system_tested = "TO-N3-2 (biotin conjugate)"
measured_endpoint = "pull-down binding Z-score"
measurement = -1.55

[[record]]
biopolymer_sequence = "GCGGUUUUUGCCAUUACUUUUCAUUUUUACCAUUAAAAGUAAUGGCAAAAAGCAU [hsa-mir-548q]"
system_tested = "TO-N3-2 (biotin conjugate)"
measured_endpoint = "pull-down binding Z-score"
measurement = -0.56

[[record]]
biopolymer_sequence = "CGGGGCGGGAGGGGAAGGGACGCCCG [hsa-mir-6850]"
system_tested = "TO-N3-2 (biotin conjugate)"
measured_endpoint = "pull-down binding Z-score"
measurement = 5.1

[[record]]
biopolymer_sequence = "GCCUCGCUUCCUGCCGGCGCGGC [hsa-mir-1538]"
system_tested = "TO-N3-2 (biotin conjugate)"
measured_endpoint = "pull-down binding Z-score"
measurement = 0.147

[[record]]
biopolymer_sequence = "CUCUGGUCUAUAAUGGGUUAAAUAGUAGAG [hsa-mir-609]"
system_tested = "TO-N3-2 (biotin conjugate)"
measured_endpoint = "pull-down binding Z-score"
measurement = 0.131

[[record]]
biopolymer_sequence = "AGUGUGCAGUCAUCCACACA [hsa-mir-4731]"
system_tested = "TO-N3-2 (biotin conjugate)"
measured_endpoint = "pull-down binding Z-score"
measurement = -0.401

[[record]]
biopolymer_sequence = "UUUUAAUUUUUUUAAAA [hsa-mir-3606]"
system_tested = "TO-N3-2 (biotin conjugate)"
measured_endpoint = "pull-down binding Z-score"
measurement = -1.39

[[record]]
biopolymer_sequence = "UGCUCCUUGAACAGGAGGAGCA [hsa-mir-4708]"
system_tested = "TO-N3-2 (biotin conjugate)"
measured_endpoint = "pull-down binding Z-score"
measurement = -0.535

[[record]]
biopolymer_sequence = "UUCAGCCUAAAGCAAUGAGAAGCCUCUGAAAGGCUGA [hsa-mir-1827]"
system_tested = "TO-N3-2 (biotin conjugate)"
measured_endpoint = "pull-down binding Z-score"
measurement = 0.76

